Biological target: T1, activated human complement C1s (human, UniProt P09871 16-688)
T1 construct: also called aC1s; active C1s
T1 sequence: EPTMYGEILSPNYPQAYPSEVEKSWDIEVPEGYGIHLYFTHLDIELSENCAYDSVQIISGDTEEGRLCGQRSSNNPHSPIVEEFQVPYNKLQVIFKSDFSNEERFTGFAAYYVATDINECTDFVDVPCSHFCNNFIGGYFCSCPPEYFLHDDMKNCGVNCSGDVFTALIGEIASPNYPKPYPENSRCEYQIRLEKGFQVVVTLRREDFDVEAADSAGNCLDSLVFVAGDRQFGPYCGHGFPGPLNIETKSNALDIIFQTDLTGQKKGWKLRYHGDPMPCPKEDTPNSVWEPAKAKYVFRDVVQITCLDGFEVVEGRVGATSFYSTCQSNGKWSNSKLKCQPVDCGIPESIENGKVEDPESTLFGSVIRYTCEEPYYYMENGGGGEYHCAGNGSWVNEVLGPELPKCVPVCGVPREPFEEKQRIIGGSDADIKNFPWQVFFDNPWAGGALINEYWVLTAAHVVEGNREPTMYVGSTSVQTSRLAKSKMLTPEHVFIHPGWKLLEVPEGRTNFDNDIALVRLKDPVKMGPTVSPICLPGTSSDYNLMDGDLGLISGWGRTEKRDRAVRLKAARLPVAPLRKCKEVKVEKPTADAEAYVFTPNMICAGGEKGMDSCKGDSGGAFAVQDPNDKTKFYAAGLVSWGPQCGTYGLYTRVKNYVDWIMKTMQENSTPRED
Assay: kinetic characterization of binding to active human C1s; instrument not stated; column head kdis
REPORTED PROPERTY: koff (s⁻¹)
Give the value, in units of s⁻¹, as a plain number.

Please indicate koff recorded for humanized TNT005 variant VH variant 2+Vk variant 2 (antibody, V domains shown, also called VH variant 2 + VL variant 2) VH: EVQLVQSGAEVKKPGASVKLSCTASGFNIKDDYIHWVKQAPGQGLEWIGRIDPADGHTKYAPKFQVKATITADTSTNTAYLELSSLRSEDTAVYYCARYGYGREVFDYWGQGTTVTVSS VL: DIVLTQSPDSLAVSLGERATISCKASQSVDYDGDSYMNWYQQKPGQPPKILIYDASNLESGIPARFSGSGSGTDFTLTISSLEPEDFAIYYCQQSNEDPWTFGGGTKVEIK 0.000172
